Recorded values, source ChEMBL document CHEMBL3421601.

- tested-system: Coagulation factor X (Homo sapiens, UniProt P00742)
- Sequence (P00742 41-179 limits assumed): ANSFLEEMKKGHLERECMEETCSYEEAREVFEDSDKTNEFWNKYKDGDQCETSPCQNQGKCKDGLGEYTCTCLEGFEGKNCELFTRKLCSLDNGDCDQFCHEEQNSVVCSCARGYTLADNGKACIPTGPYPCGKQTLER
- Sequence (P00742 235-488 limits assumed): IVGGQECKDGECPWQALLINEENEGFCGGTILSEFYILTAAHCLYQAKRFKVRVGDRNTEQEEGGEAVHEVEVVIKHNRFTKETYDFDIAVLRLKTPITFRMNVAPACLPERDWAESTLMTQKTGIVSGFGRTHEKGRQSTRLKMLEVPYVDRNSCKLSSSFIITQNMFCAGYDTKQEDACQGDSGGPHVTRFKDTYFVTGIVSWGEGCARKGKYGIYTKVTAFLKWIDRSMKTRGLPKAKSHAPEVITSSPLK
quantity: Ki (µM)
Give your result in µM as a bare value.

// Ki lookup, key: Cc1ccc(O)c2c3c(nn12)CCC(C)(NC(=O)c1ccc(-n2cnnc2)cc1Cl)C3 (stereo unspecified)
12

###

Record set of pKi for target or system Coagulation factor IX (Homo sapiens, UniProt P00740).
Recall that pKi is obtained by taking minus log10 of the concentration measured in molar.

Below, each entry is followed by its recorded pKi result.
Record request: pKi value, item Cc1ccc(O)c2c3c(nn12)CCC(C)(NC(=O)c1ccc(F)cc1)C3 (stereo not drawn)
4.74

Cool, now "Cc1ccc(O)c2nc(CCNC(=O)c3ccc(-n4cnnc4)cc3Cl)[nH]c12"
3.88

Same question, Cc1ccc(O)c2c3c(nn12)CCC(C)(NC(=O)c1ccc(-n2cccn2)cc1Cl)C3 (stereo not drawn) this time
5.36

Next record, please: Cc1ccc(O)c2c3c(nn12)CCC(C)(NC(=O)c1ccc(-n2ccnn2)cc1Cl)C3 (stereo not drawn)
6.03

Moving on to Cc1ccc(O)c2c3c(nn12)CCC(C)(NC(=O)c1ccc(-n2cnnc2)cc1Cl)C3 (stereo not drawn)
7.05

# ---- query molecule ----
Quick one: pKi of "Cc1cc2nc([C@H](CNC(=O)c3ccc(-n4cnnc4)cc3Cl)c3ccccc3)[nH]c2cc1C" ?
6.28
